Biological target: BRAF D594G (Homo sapiens, UniProt P15056, D594G)
Construct: Horizon Discovery (HCT-116 BRAF−/− cells); host or cells: HCT-116 BRAF−/− cells, clone 63, lentiviral transduction
Sequence (P15056 whole entry D594G): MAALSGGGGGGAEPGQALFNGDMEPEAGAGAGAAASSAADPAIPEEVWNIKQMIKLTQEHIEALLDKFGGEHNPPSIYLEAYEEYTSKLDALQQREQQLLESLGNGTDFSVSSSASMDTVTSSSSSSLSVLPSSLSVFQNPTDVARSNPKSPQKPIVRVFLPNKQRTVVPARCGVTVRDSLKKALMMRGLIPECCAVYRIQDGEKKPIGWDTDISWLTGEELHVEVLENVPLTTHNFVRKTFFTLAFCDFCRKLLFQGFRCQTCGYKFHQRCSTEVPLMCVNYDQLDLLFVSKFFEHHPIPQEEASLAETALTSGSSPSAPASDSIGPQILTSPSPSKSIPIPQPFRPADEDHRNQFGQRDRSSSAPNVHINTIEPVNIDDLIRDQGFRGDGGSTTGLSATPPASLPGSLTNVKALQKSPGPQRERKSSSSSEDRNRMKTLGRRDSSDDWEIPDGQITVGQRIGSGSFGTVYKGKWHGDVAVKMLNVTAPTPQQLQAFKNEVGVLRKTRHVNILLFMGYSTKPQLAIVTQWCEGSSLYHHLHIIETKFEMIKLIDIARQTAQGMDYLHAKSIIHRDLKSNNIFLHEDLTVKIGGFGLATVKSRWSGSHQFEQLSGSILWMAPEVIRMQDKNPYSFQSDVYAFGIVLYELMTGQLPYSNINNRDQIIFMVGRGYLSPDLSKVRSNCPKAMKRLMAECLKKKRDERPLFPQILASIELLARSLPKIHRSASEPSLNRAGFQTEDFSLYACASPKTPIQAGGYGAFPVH
Test: BRAF HiBiT degradation assay, C-terminal HiBiT-tagged BRAF D594G overexpressed in HCT-116 BRAF−/− cells (clone 63), Nano-Glo HiBiT Lytic assay
Assay type: cell-based
Settings: BRAF D594G; DC50 at 50%: fitted conc. at Y=50
Procedure: An A375 cell line expressing a homozygous V600E mutation was purchased from ATCC (Manassas, VA, USA). […] HiBiT signal was measured by a Nano-Glo HiBiT Lytic assay (Promega cat. no. N3050). […] Luminesce units (LU) were read on an EnVision plate reader 2105 (Perkin Elmer). Percent protein remaining and viability remaining per sample were calculated as follows: […]
Below: a set of entries, each annotated with reported DC50.

>>> recorded_value("CCN(C)S(=O)(=O)Nc1cccc(-c2nc(C)sc2-c2ccnc(Nc3ccc(N4CCN(CC5CCN(c6ccc(C7CCC(=O)NC7=O)cn6)CC5)CC4)cn3)n2)c1F (racemic)")
"< 10 nM"

Query: Given `CCCS(=O)(=O)Nc1cccc(-c2nc(-c3ccc(N4CCN(CC5CCN(c6ccc([C@H]7CCC(=O)NC7=O)cc6)CC5)CC4)cc3)sc2-c2ccnc(N)n2)c1F` , state its recorded DC50.
Response: > 500 nM

Query: Given CCCS(=O)(=O)Nc1cccc(-c2nc(C3(C)CCN(C(=O)CN4CCC5(CC4)CN(c4ccc6c(c4)C(=O)N(C4CCC(=O)NC4=O)C6=O)C5)CC3)sc2-c2ccnc(N)n2)c1F (racemic) , state its recorded DC50.
Response: < 10 nM

---

Below: a set of entries, each annotated with reported Dmax.
Target: BRAF G466V (Homo sapiens, UniProt P15056, G466V)
Construct: Horizon Discovery (HCT-116 BRAF−/− cells); host or cells: HCT-116 BRAF−/− cells, clone 8, lentiviral transduction
Sequence (P15056 whole entry G466V): as the sequence (P15056 whole entry D594G) above, with G466V, G594D counted along it
Test: BRAF HiBiT degradation assay, C-terminal HiBiT-tagged BRAF G466V overexpressed in HCT-116 BRAF−/− cells (clone 8), Nano-Glo HiBiT Lytic assay
Format: cell-based
Conditions: HCT-116; BRAF G466V; percentage protein degraded at maximal compound effect relative to DMSO

Query: Given `CCN(C)S(=O)(=O)Nc1cccc(-c2nc(C)sc2-c2ccnc(Nc3ccc(N4CCN(CC5CCN(c6ccc([C@H]7CCC(=O)NC7=O)cn6)CC5)CC4)cn3)n2)c1F` , state its recorded Dmax.
Response: > 70%

Query: Given CCCS(=O)(=O)Nc1cccc(-c2nc(C(C)(C)C)sc2-c2ccnc(NC3CC4(CCN(C(=O)CN5CCC(c6ccc(NC7CCC(=O)NC7=O)cc6)CC5)CC4)C3)n2)c1F (racemic) , state its recorded Dmax.
Response: 30 to 70%

Query: Given CCCS(=O)(=O)Nc1cccc(-c2nc(C(C)(C)C)sc2-c2ccnc(Nc3ccc(C4CCN(C(=O)C5CN(c6ccc(C7CCC(=O)NC7=O)cn6)C5)CC4)cc3)n2)c1F (racemic) , state its recorded Dmax.
Response: < 30%

Query: Given `CCCS(=O)(=O)Nc1cccc(-c2nc(C(C)(C)C)sc2-c2ccnc(Nc3ccc(C4CCN(CC5CCN(c6ccc([C@H]7CCC(=O)NC7=O)cc6)CC5)CC4)cc3)n2)c1F` , state its recorded Dmax.
Response: 30 to 70%

Query: Given CCCS(=O)(=O)Nc1cccc(-c2nc(C3CCN(C(=O)C4(C)CCN(C(=O)C5CCN(c6ccc(C7CCC(=O)NC7=O)cc6)CC5)CC4)CC3)sc2-c2ccnc(NC(C)C)n2)c1F (racemic) , state its recorded Dmax.
Response: 30 to 70%
